Reference source for all entries: ChEMBL document CHEMBL1201862

Tested on: NCI/ADR-RES
assay_name: NCI tumour cell line growth inhibition, 48 h
The source made the active and inactive calls. No stated cut-off is given here; in the data, active = GI50 up to about 1.1 µM and inactive = higher.
Outcome codes: yes (active), no (inactive)

- compound: "O=C1OC[C@@H]2Cc3c([nH]c4ccccc34)[C@@H](c3ccc(O)cc3)N12"
  cat: "no"
- compound: "O=C1CCCc2ccc3c(c21)CC1(Cc2ccccc2C1)C3"
  cat: "no"
- compound: "CC1/C(=N/O)CC(c2ccccc2)N(N=O)C1c1ccccc1 (stereo unspecified)"
  cat: "no"
- compound: "COc1ccc(-c2cc(=O)c3c(OC)c(O)c(OC)cc3o2)cc1"
  cat: "no"
- compound: "CCc1nnc(CC)n1NCCCC(=O)O"
  cat: "no"
- compound: "O=c1cc(-c2ccccc2)[nH]c2cccc(S)c12"
  cat: "yes"
- compound: "O=[N+]([O-])/C=C/c1cn(CCCCCCCCn2cc(/C=C/[N+](=O)[O-])c3ccccc32)c2ccccc12"
  cat: "no"
- compound: "O=C1C=CC(=O)c2c(O)nc(CBr)nc21"
  cat: "no"
- compound: "O=C1c2ccccc2C(=O)c2cc(/N=N/c3c(O)ccc4ccccc34)ccc21"
  cat: "no"
- compound: "C/N=C(\\Nc1cccc(C(F)(F)F)c1)SCc1ccc(N=C=S)cc1"
  cat: "no"
- compound: "[O-][S+]1SC(=S)C2C=CC=NC21 (stereo unspecified)"
  cat: "no"

----------
Listed next: entries and their corresponding GI50.
Tested on: DLD-1
assay_name: NCI tumour cell line growth inhibition, 48 h
Activity calls are given as the source filed them. Cut-off read from the data, not from the text of the source: active = GI50 up to about 1.1 µM and inactive = higher.
reported_metric: GI50

- compound: "O=S(=O)(N/N=C/c1c(Cl)cccc1Cl)c1ccccc1"
  observed: "> 100 µM (inactive)"
- compound: "CC1=C2C3OC(=O)C(C)C3C(O)C[C@@]2(C)C(=O)CC1 (stereo partly specified)"
  observed: "> 100 µM (inactive)"
- compound: "CC(C)(Oc1ccc2c(=O)cc(-c3ccc(Cl)cc3)oc2c1)C(=O)Nc1c(Cl)cccc1Cl"
  observed: "> 100 µM (inactive)"
- compound: "CCOC(=O)C1S(=O)(=O)OCCOS1(=O)=O"
  observed: "> 100 µM (inactive)"
- compound: "c1ccc(NC[Si]23OCCN(CCO2)CCO3)cc1"
  observed: "> 100 µM (inactive)"
- compound: "C/C(CC(=O)Nc1ccccc1[N+](=O)[O-])=N\\NC(N)=O"
  observed: "> 100 µM (inactive)"
- compound: "O=C1/C(=C/c2ccccc2)CN(C(=O)C(Cl)(Cl)Cl)C/C1=C\\c1ccccc1"
  observed: "1.96 µM (inactive)"
- compound: "CC1(C)OC(=O)[C@@](C)([C@H](O)c2ccccc2)O1"
  observed: "> 100 µM (inactive)"
- compound: "O=C(O)c1ccccc1C1c2ccc(Cl)cc2Oc2cc(Cl)ccc21"
  observed: "> 100 µM (inactive)"
- compound: "Cc1ccc(NC(=O)/C(=N\\Nc2ccc([N+](=O)[O-])cc2[N+](=O)[O-])C2C(=O)NC(=O)NC2=O)cc1"
  observed: "21.1 µM (inactive)"
- compound: "c1cc2n(n1)CCN2"
  observed: "5420 µM (inactive)"

----------
Test system: SK-MEL-5
assay_name: NCI tumour cell line growth inhibition, 48 h
The source made the active and inactive calls. Rule as the data show it: active = GI50 up to about 1.1 µM and inactive = higher.
Outcome codes: t for active, f for inactive

- compound: "O=C1/C(=C/c2ccccc2)CN(C(=O)C(Cl)(Cl)Cl)C/C1=C\\c1ccccc1"
  cat: "f"
- compound: "CC(=O)Oc1ccc2c(c1)CC[C@@H]1C2[C@@H](O[N+](=O)[O-])C[C@@]2(C)C1CC[C@@H]2O (stereo partly specified)"
  cat: "f"
- compound: "Cn1c(S)nc2c(Cl)cc(Cl)cc2c1=O"
  cat: "f"
- compound: "O=c1oc2ccccc2cc1-c1cn2cc(Cl)ccc2n1"
  cat: "t"
- compound: "CC1=Nc2ccccc2C12C(c1ccccc1)C(c1ccccc1)C(=O)N1c3ccccc3CC12 (stereo unspecified)"
  cat: "f"
- compound: "Cc1cc(S(=O)(=O)Nc2nncn2-c2ccc(Cl)cc2)c(S)cc1Cl"
  cat: "f"
- compound: "O=c1c([Se]c2coc3ccccc3c2=O)coc2ccccc12"
  cat: "f"
- compound: "CCOC(=O)C1S(=O)(=O)OCCOS1(=O)=O"
  cat: "f"
- compound: "CC(C)(C)c1cc2c(O)c(c1)Cc1cc(C(C#N)(Cc3ccc4ccccc4c3)Cc3ccc4ccccc4c3)cc(c1O)Cc1cc(C(C)(C)C)cc(c1O)Cc1cc(C(C#N)(Cc3ccc4ccccc4c3)Cc3ccc4ccccc4c3)cc(c1O)C2"
  cat: "f"
- compound: "CCOC(=O)/C=C(/C(=O)OCC)n1ccc(=O)n(CC(=O)OCC)c1=O"
  cat: "f"
- compound: "CC1(C)C2CCC3(OCCO3)C1C1OC12 (stereo unspecified)"
  cat: "f"
- compound: "O=C1O/C(=C(/Cl)c2cccc3ccccc23)c2ccccc21"
  cat: "f"
- compound: "O=C1NC(=O)/C(=C/c2ccc(S(=O)(=O)N/N=C\\C(O)C(O)C(O)C(O)CO)cc2)N1 (stereo unspecified)"
  cat: "f"
- compound: "CN(C(=O)C1=CCCCCC1)c1ccccc1I"
  cat: "f"
- compound: "O=C1c2n[nH]nc2C(=O)c2n[nH]nc21"
  cat: "f"
- compound: "Cc1ccc(Nc2nnc(-c3ccc4c(c3)OCO4)o2)c(C)c1"
  cat: "f"
- compound: "C/N=C(\\Nc1cccc(C(F)(F)F)c1)SCc1ccc(N=C=S)cc1"
  cat: "f"
- compound: "CSC1=Nc2ccccc2N(C)c2c1c(-c1ccccc1)nn2C"
  cat: "f"
- compound: "COc1ccc(/C=C(\\C#N)c2nc(-c3cc4ccccc4oc3=O)cs2)cc1"
  cat: "f"
- compound: "CC(C)(Br)C(Br)CCC1(C2CO2)CO1 (stereo unspecified)"
  cat: "f"
- compound: "CC(=O)OC1COC(n2c(N)c(C#N)c(C)c(C#N)c2=S)C(OC(C)=O)C1OC(C)=O (stereo unspecified)"
  cat: "f"
- compound: "CN(NC(=O)/C(=C\\c1ccco1)NC(=O)c1ccccc1)c1cn[nH]c(=O)c1Cl"
  cat: "f"
- compound: "CCCSc1nc(COC(=O)NC)c(COC(=O)NC)n1C"
  cat: "f"
- compound: "CCc1nc(N)nc(N)c1-c1ccc(Cl)c(Cl)c1"
  cat: "f"
- compound: "O=c1cc(-c2ccccc2)[nH]c2cccc(S)c12"
  cat: "t"
- compound: "N=C(c1ccc2ccccc2c1)c1ccccc1Cc1ccccc1"
  cat: "f"
- compound: "CC(C)C1=CC(=O)[C@@](C)(C2[C@H](O)C[C@@]3(C)[C@@H]4CC=C5[C@@H](CC[C@@H](OC6OCC(O)C(O)C6OC6OC(C)C(O)C(O)C6O)C5(C)C)[C@]4(C)C(=O)C[C@]23C)O1 (stereo partly specified)"
  cat: "f"
- compound: "CCCC(=O)O[C@H]1C=C2C[C@@]34SS[C@]5(CC6=C[C@H](OC(C)=O)[C@@H]7O[C@@H]7[C@H]6N5C3=O)C(=O)N4[C@@H]2[C@H]2O[C@H]21"
  cat: "t"
- compound: "CCOC(=O)c1nc2ccccc2n(CC)c1=O"
  cat: "f"
- compound: "COc1ccc(-c2cc(=O)c3c(OC)c(O)c(OC)cc3o2)cc1"
  cat: "f"
- compound: "CN(C)CC(/C(Cc1ccccc1)=N\\NC(=O)C[n+]1ccccc1)c1ccccc1 (stereo unspecified)"
  cat: "f"
- compound: "Oc1ccccc1C1C=C(c2ccccc2)NC(N2CCCCC2)=C1c1nc2ccccc2[nH]1 (stereo unspecified)"
  cat: "f"
- compound: "Cc1ccc2c(O)cc(-c3ccccc3)nc2n1"
  cat: "t"
- compound: "CC[C@@H]1CN(C)[C@H]2Cc3c([nH]c4ccccc34)C(=O)C[C@H]1C2C(=O)OC (stereo partly specified)"
  cat: "f"
- compound: "CC(=O)OCCCCn1cnc2c(Cl)nc(Nc3ccccc3)nc21"
  cat: "f"
- compound: "C/C=C/C(C#N)O[Si](C)(C)C (stereo unspecified)"
  cat: "f"
- compound: "Cc1c2cc[n+](C)cc2c(C)c2c1[nH]c1ccc(Cl)cc12"
  cat: "t"
- compound: "COc1cc([C@@H]2c3cc4c(cc3[C@@H](NCc3ccccc3)C3COC(=O)[C@@H]32)OCO4)cc(OC)c1O (stereo partly specified)"
  cat: "f"
- compound: "CCOCN1COCN/C1=N/C#N"
  cat: "f"
- compound: "CC[P+](C)(C)c1ccccc1"
  cat: "f"
- compound: "Clc1ccc(C2=CCN3CC=C(c4ccc(Cl)cc4)C23)cc1"
  cat: "f"

----------
System: KM12
assay_name: NCI tumour cell line growth inhibition, 48 h
Active and inactive are the calls of the source. No stated cut-off is given here; in the data, active = GI50 up to about 1.1 µM and inactive = higher.
Labels: active, inactive

- compound: "C[C@@H]1O[C@]2(O)[C@@H]3CCCN3S(=O)(=O)CCN2C1=O"
  cat: "inactive"
- compound: "Cc1cccc(/C=N/NC(=S)N(C)CCc2ccccn2)n1"
  cat: "active"
- compound: "CCOC(=O)c1ccc(C(=O)C(C(C)=O)C(=O)OC(C)(C)C)[nH]1 (stereo unspecified)"
  cat: "inactive"
- compound: "CCOP1(=O)C=C(C)C(=C(Cl)Cl)C(C)=C1 (stereo unspecified)"
  cat: "inactive"
- compound: "FC(F)(F)C1(C(F)(F)F)C2CCC3(CC(F)(F)C(F)(F)S3)C1C2 (stereo unspecified)"
  cat: "inactive"
- compound: "O=C(NC1C(=O)NNC1c1cccc([N+](=O)[O-])c1)c1ccccc1 (stereo unspecified)"
  cat: "inactive"
- compound: "C=C(Br)N(CC)CC"
  cat: "inactive"
- compound: "NC1CC(=O)c2cscc21 (stereo unspecified)"
  cat: "inactive"
- compound: "O=C1c2cccnc2-c2nccc3ccnc1c23"
  cat: "inactive"
- compound: "COC1CC(=O)C2C(=O)N(c3ccccc3)C(=O)C23C(C(=O)c2ccccc2)=C(C)NC13O (stereo unspecified)"
  cat: "inactive"
- compound: "N#Cc1c(C(N)=O)ncn1Cc1ccccc1"
  cat: "inactive"
- compound: "COc1cc(CNNC(N)=S)cc(OC)c1OC"
  cat: "inactive"
- compound: "COc1cc(C2C(C#N)=C(N)OC3=C2CCS(=O)(=O)c2ccc(C)cc23)cc(OC)c1OC (stereo unspecified)"
  cat: "inactive"
- compound: "COC(=O)C1CCC(=O)N1C(c1ccc2c(c1)OCO2)c1cc(OC)c(OC)c(OC)c1 (stereo unspecified)"
  cat: "inactive"
- compound: "Cc1c2c(n(CCN(C)C)c1C)NN=C(C#N)S2(=O)=O"
  cat: "inactive"
- compound: "CC1=CC(=O)NCCN1C"
  cat: "inactive"
- compound: "O=[N+]([O-])/C=C/c1cn(CCCCCCCCn2cc(/C=C/[N+](=O)[O-])c3ccccc32)c2ccccc12"
  cat: "inactive"
- compound: "O=C(O)c1ccccc1-c1ccccc1C(=O)Nc1ccc2c(c1)Cc1cc(F)ccc1-2"
  cat: "inactive"
- compound: "c1cc2n(n1)CCN2"
  cat: "inactive"
- compound: "CC1/C(=N/O)CC(c2ccccc2)N(N=O)C1c1ccccc1 (stereo unspecified)"
  cat: "inactive"
- compound: "CC1(C)CC(=O)C2(CC(CSc3ccccc3)C(CS(=O)(=O)c3ccccc3)C2)C(=O)C1 (stereo unspecified)"
  cat: "inactive"
- compound: "Cc1c(C)c2ccc3oc4ccccc4c3c2oc1=O"
  cat: "inactive"
- compound: "CN(C)C(=S)N=C(Nc1ccccc1)Nc1ccccc1"
  cat: "inactive"
- compound: "Cc1cc(NS(=O)(=O)c2ccc(Nc3c4ccccc4nc4c(C(=O)NCCO)cccc34)cc2)no1"
  cat: "inactive"
- compound: "Cc1ccc(S(=O)(=O)NN=C2CCCCCCCCCCC2)cc1"
  cat: "inactive"
- compound: "CC1C(c2ccc(Cl)cc2)c2cc3c(cc2OC1N1CCOCC1)OCO3 (stereo unspecified)"
  cat: "inactive"
- compound: "CCCC(=O)Oc1ccc2c(C)cc(=O)oc2c1OC(=O)CCC"
  cat: "inactive"
- compound: "C[C@]12CC[C@H](O[C@@H]3O[C@H](CO[C@@H]4O[C@H](CO)[C@@H](O)[C@H](O)[C@H]4O)[C@@H](O)[C@H](O)[C@H]3O)C[C@@H]1CC[C@@H]1[C@@H]2CC[C@]2(C)[C@@H](C3=CC(=O)OC3)CC[C@]12O"
  cat: "inactive"
- compound: "CN(C)C(=O)/N=c1\\ss/c(=N\\C(=S)N(C)C)n1-c1ccccc1"
  cat: "inactive"
- compound: "O=S(=O)(F)Cc1ccccc1 [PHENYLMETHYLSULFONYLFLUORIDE]"
  cat: "inactive"
- compound: "CCCCCCNC(=O)C1=C(C)NC(C)=C(C(=O)NCCCCCC)C1"
  cat: "inactive"
- compound: "N#Cc1c(N)nc2c(C#N)c(N)cc3c2c1Oc1ccccc1-3"
  cat: "inactive"
- compound: "COc1c2nc(CCl)n(C)c(=O)c2c(OC)c2c(=O)n(C)c(CCl)nc12"
  cat: "inactive"
- compound: "CCOCN1COCN/C1=N/C#N"
  cat: "inactive"
- compound: "COC(=O)[C@@H]1c2cc3c(c(O)c2[C@@H](OC2OC(C)C(OC)C(C)(OC)C2OC)C[C@]1(C)O)C(=O)c1c(O)cc2c(c1C3=O)O[C@H]1O[C@]2(C)[C@H](O)[C@@H](N(C)C)[C@@H]1O (stereo partly specified)"
  cat: "active"
- compound: "Cc1ccc(OCC(=O)N2N=C(c3ccccc3)CC2(O)c2ccccc2)cc1 (stereo unspecified)"
  cat: "inactive"
- compound: "OCCOCCN1CCN(c2nc(N3CCCC3)c3nc(Cl)c(NCc4ccccc4)nc3n2)CC1"
  cat: "inactive"
- compound: "N#CCC(=O)N/N=C1\\C(=O)N(c2ccc(Cl)cc2)C(=O)C(=O)C1c1nc2ccccc2o1 (stereo unspecified)"
  cat: "inactive"
- compound: "Fc1cccc(CSc2ncnc3c2ncn3C2CCCS2)c1 (stereo unspecified)"
  cat: "inactive"
- compound: "CC(C)N(C(=O)C12C3C4C5C3C1(C#N)C5C42)C(C)C (stereo unspecified)"
  cat: "inactive"
- compound: "CC(C)C1=CC(=O)[C@@](C)(C2[C@H](O)C[C@@]3(C)[C@@H]4CC=C5[C@@H](CC[C@@H](OC6OCC(O)C(O)C6OC6OC(C)C(O)C(O)C6O)C5(C)C)[C@]4(C)C(=O)C[C@]23C)O1 (stereo partly specified)"
  cat: "inactive"
